biological target: Prostaglandin G/H synthase 1 (Homo sapiens)
Sequence (P23219 whole entry): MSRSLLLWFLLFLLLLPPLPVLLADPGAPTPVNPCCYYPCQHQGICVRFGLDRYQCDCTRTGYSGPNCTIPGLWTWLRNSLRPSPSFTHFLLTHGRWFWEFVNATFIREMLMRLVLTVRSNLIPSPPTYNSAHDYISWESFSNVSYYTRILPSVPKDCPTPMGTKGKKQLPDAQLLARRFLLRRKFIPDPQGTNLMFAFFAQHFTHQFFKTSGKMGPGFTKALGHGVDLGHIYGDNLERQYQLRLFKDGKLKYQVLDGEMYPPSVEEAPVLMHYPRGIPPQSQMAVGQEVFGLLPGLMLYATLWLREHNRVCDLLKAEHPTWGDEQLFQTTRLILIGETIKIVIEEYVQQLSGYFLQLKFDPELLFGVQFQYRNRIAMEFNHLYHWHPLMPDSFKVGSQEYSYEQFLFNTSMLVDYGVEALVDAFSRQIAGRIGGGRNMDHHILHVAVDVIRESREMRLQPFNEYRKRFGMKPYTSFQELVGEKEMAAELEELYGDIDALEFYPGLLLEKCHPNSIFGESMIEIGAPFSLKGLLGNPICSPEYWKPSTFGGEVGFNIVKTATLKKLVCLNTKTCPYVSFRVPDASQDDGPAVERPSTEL
pIC50: −log10 of the molar value.
Param threshold (6) applies to pIC50; output YES when value >= threshold, NO when value < threshold.

> print(dat)
                               query.smiles  category.label
1  COc1ccc(-c2nc(C)sc2-c2ccc(S(N)(=O)=O)cc2)cc1F              NO
2  COc1ccc(-c2nc(-c3ccccc3Cl)sc2-c2ccc(S(N)(=O)=O)cc2)cc1F              NO
3  Cc1nc(-c2ccc(S(N)(=O)=O)cc2)c(-c2ccccc2)s1              NO
4  Cc1nc(-c2ccc(S(N)(=O)=O)cc2)c(-c2ccc(Br)cc2)s1              NO
5  COc1ccc(-c2nc(NCc3ccccc3)sc2-c2ccc(S(N)(=O)=O)cc2)cc1F             YES
6  Cc1nc(-c2ccc(Cl)cc2)c(-c2ccc(S(N)(=O)=O)cc2)s1              NO
